I'd appreciate it if you could supply pKa values for the items below.
- testParameters: basic group
One number for each entry.

- compound: "CCNN(CC)CC"
  resultNumber: 7.08

State recorded pKa for all listed compounds.
1. OCCCNc1ccccc1
2. c1ccc(N(CC2CO2)CC2CO2)cc1 (configuration not stated)
3. CCN1CC[C@]2(C)c3cc(O)ccc3C[C@H]1[C@H]2C
4. [O-]c1nccc2cccnc12
5. CCN(CC)CC(=O)NCc1ccccc1
6. NCc1ccc(O)cc1
7. C[C@H]1CCC2CC[C@H](C)N21

-- reply
1: 4.53; 2: -0.4; 3: 9.42; 4: 12; 5: 8.07; 6: 9.14; 7: 11.7

State recorded pKa for all listed compounds.
1. CCOCCn1c(CN2CCC[NH+](CCCCn3cc(C(=O)[O-])cn3)CC2)nc2ccccc21
2. COc1cccc2ccc(C)nc12

-- reply
1. 4.8
2. 5.69

* * *

- testParameters: basic group
Where a SMILES comes first, the peptide text is derived from it.
Use satisfied when the recorded pKa is no lower than 9; use not satisfied when it is lower.

- molecule: "Cc1ccc(N(C)C)cc1"
  label: "not satisfied"

-- ask Please indicate if the recorded pKa for CCCCCCCCCCCCCCN(CCO)CC(C)O (centres undefined) meets or exceeds 9.
-- reply not satisfied

-- ask Please indicate if the recorded pKa for CN(C)c1cccc2c(S(=O)(=O)NCC[NH+](C)C)cccc12 meets or exceeds 9.
-- reply not satisfied

-- ask Please indicate if the recorded pKa for Cn1ccc(=S)c2ccccc21 meets or exceeds 9.
-- reply not satisfied

-- ask Please indicate if the recorded pKa for C[C@H]1CCN2CCC[C@@H]12 meets or exceeds 9.
-- reply satisfied

-- ask Please indicate if the recorded pKa for Cc1cc(C)c(CN)cc1N meets or exceeds 9.
-- reply satisfied

-- ask Please indicate if the recorded pKa for OCCc1cnc(P(c2ncc(CCO)[nH]2)c2[nH]c(CCO)c[nH+]2)[nH]1 meets or exceeds 9.
-- reply not satisfied

-- ask Please indicate if the recorded pKa for Cc1cccc(CN)c1 meets or exceeds 9.
-- reply satisfied

-- ask Please indicate if the recorded pKa for C[C@H](N)C(=O)N[C@@H](Cc1c[nH]cn1)C(=O)[O-] (H-Ala-His-OH) meets or exceeds 9.
-- reply not satisfied

-- ask Please indicate if the recorded pKa for OCn1cnc2ccccc21 meets or exceeds 9.
-- reply not satisfied

-- ask Please indicate if the recorded pKa for Cc1cc([O-])[nH+]cn1 meets or exceeds 9.
-- reply not satisfied

-- ask Please indicate if the recorded pKa for COc1ccc(-c2ncc(-c3ccccc3)o2)cc1 meets or exceeds 9.
-- reply not satisfied

-- ask Please indicate if the recorded pKa for CN=C(N(C)C)N(C)C meets or exceeds 9.
-- reply satisfied

* * *

- testParameters: acidic group
resultType: pKa

State recorded pKa for all listed compounds.
1. CC(C)CP(=O)(O)CC(C)C
2. C/C=C(\C(=O)O)c1ccc([N+](=O)[O-])cc1

-- reply
3.25
5

State recorded pKa for all listed compounds.
1. O=C1O[C@@H]([C@@H](O)CO)C(O)=C1O
2. CC1(C)[C@H]2CC[C@@]1(C)[C@@H](O)[C@H]2C(=O)O

-- reply
1. 4.16
2. 2.05

State recorded pKa for all listed compounds.
1. C=CC[NH2+]CCCCCCCCCCC(=O)O
2. C[Se](=O)O
3. Cc1c(C)c2c(c(C)c1OP(=O)([O-])O)CCC(C)(CCC[C@@H](C)CCC[C@@H](C)CCCC(C)C)O2 (some centres undefined)
4. CCOC(=O)Nc1ncnc2nc[nH]c12

-- reply
[4.7, 5.19, 9.44, 9.63]

State recorded pKa for all listed compounds.
1. O=C(CCl)Nc1nnc(-c2ccccc2)s1
2. CC(P)C(=O)O (centres undefined)
3. COc1cc(C)nc(-n2nc(C)cc2O)n1
4. Cc1ccc(C(=O)S)cc1
5. C[n+]1cccc2cc(S)ccc21

-- reply
6.9
4.15
6.9
2.59
4.12

-- ask Request the reported pKa associated with Oc1cc[nH+]c(O)c1
-- reply 1.37

* * *

I'd appreciate it if you could supply pKa values for the items below.
- testParameters: basic group
One number for each entry.

- compound: "NC(=O)c1cc(-c2ccccc2)nnc1NCC[NH+]1CCOCC1"
  pKa: 2.5
- compound: "C[NH+]1CCN(C(c2ccccc2)c2ccc(Cl)cc2)CC1 (stereo not drawn)"
  pKa: 2.43
- compound: "Cc1cc(-c2ccccc2)nn2c(C[NH+](C)C)cnc12"
  pKa: 3.18

State recorded pKa for all listed compounds.
1. COc1cc(C(N)=O)ccc1-c1nc2nn(C)cc2[nH]1
2. c1cncc([C@@H]2CCCCN2)c1

-- reply
1: 3.98; 2: 4.01

State recorded pKa for all listed compounds.
1. C[n+]1cccnc1[O-]
2. Cc1ccc(O)c2ncccc12

-- reply
1: 2.5; 2: 5.29

* * *

- testParameters: basic group
resultType: pKa
One number for each entry.

- molecule: "CC(=O)n1ccnc1"
  pKa: 3.6
- molecule: "N=C(c1ccccc1)c1cccc(Cl)c1"
  pKa: 5.69

State recorded pKa for all listed molecules.
1. Nc1ccc([NH3+])cc1
2. O=C([O-])c1c2cccc1COCCOCc1ncc([nH]1)COCCOC2
3. O=[N+]([O-])c1ccc2[nH]c(-c3ccccc3)nc2c1
4. CCc1nc2cc3ccccc3cc2[nH]1
5. Cc1cc(NN)nc2ccccc12
6. CC1CNCC[NH2+]1 (stereo unspecified)
7. c1nc(Cc2c[nH]c(Cc3[nH]cc[nH+]3)n2)c[nH]1

-- reply
1. 2.86
2. 7.05
3. 2.95
4. 6.14
5. 8.35
6. 5.46
7. 6.15

* * *

- testParameters: basic group
I'd appreciate it if you could supply pKa values for the items below.
Answers are plain numbers.

Here is how some compounds turned out for pKa.
- compound: "CCNCCC(=O)[O-]"
  pKa: 10.6
- compound: "Cn1c(=O)[nH]c(=O)c2[nH]cnc21"
  pKa: 0.78
- compound: "CN(C)c1ccc(Br)cc1"
  pKa: 4.25
- compound: "CCOC(=O)c1cnc2ccccc2c1[O-]"
  pKa: 9.62
- compound: "CCc1ccc(/N=N/c2ccc(N(C)C)cc2)cc1CC"
  pKa: 2.58

State recorded pKa for all listed compounds.
1. NNC(=O)[C@H](Cc1c[nH]c[nH+]1)NC(=O)OCc1ccccc1
2. CCCCCCCCCCCCCCCCCCN
3. Nc1cccc2cccnc12
4. C1CCN2CCCCN2C1
5. O=[N+]([O-])c1ccc2[nH]cnc2c1
6. c1cc(N2CCOCC2)ccc1N1CCOCC1
7. CN(C)c1ccncn1

-- reply
1. 2.5
2. 10.6
3. 4.01
4. 6.79
5. 3.77
6. 4.2
7. 6.35

State recorded pKa for all listed compounds.
1. CCOC(=O)C1(c2ccccc2)CCN(C)CC1
2. CN(C)c1cccc([N+](=O)[O-])c1

-- reply
1. 8.6
2. 2.58

* * *

- testParameters: basic group
Use Met when the recorded pKa is no lower than 8; use Not met when it is lower.

- molecule: "CC(C)NCCCCCC[NH2+]C(C)C"
  label: "Met"
- molecule: "FC(F)(F)c1ccc2cccnc2c1"
  label: "Not met"
- molecule: "Nc1ccc(-c2ncc(-c3ccc(Br)cc3)o2)cc1"
  label: "Not met"
- molecule: "[NH3+]CC(=O)N[C@@H](Cc1c[nH]cn1)C(=O)[O-]"
  label: "Not met"
- molecule: "N[C@@H]1CCC[C@H](O)C1"
  label: "Met"

Next item in the queue.
-- ask Please indicate if the recorded pKa for CCCCNc1nnc(-c2ccccc2)cc1C meets or exceeds 8.
-- reply Not met

* * *

- testParameters: basic group
Use YES when the recorded pKa is no lower than 7; use NO when it is lower.

-- ask Please indicate if the recorded pKa for O/N=C/c1ccncc1 meets or exceeds 7.
-- reply NO

-- ask Please indicate if the recorded pKa for COc1ccccc1C(=N)c1ccccc1 meets or exceeds 7.
-- reply YES

-- ask Please indicate if the recorded pKa for OC(c1ccccc1)c1ccccn1 (stereo not given) meets or exceeds 7.
-- reply NO

-- ask Please indicate if the recorded pKa for CCCSS/C(CCO)=C(/C)N(C=O)Cc1cnc(C)nc1N meets or exceeds 7.
-- reply NO

-- ask Please indicate if the recorded pKa for COc1cnnc2ccccc12 meets or exceeds 7.
-- reply NO

-- ask Please indicate if the recorded pKa for C[C@H]1[C@@H](N)[C@@H](C)[C@@H](N)[C@@H](C)[C@H]1N meets or exceeds 7.
-- reply YES

* * *

- testParameters: basic group
Use pKa to assign classes; range list: 0 (below 4), 1 (4 to below 7), 2 (7 or more)

- compound: "Nc1n[nH]c(N)c1/N=N/c1ccccc1"
  label: 0

-- ask Hey, which category is CC1CNCCN1 (centres undefined) in, do you know?
-- reply 2

-- ask Hey, which category is C=CC(CC(C)(C)C)c1ccc2cccnc2c1O (centres undefined) in, do you know?
-- reply 1

-- ask Hey, which category is c1cn[nH]c1 in, do you know?
-- reply 0

-- ask Hey, which category is CCCCNc1ncnc2c1cnn2C in, do you know?
-- reply 1

-- ask Hey, which category is O=C(CCNCCC(=O)c1ccccc1)c1ccccc1 in, do you know?
-- reply 2

-- ask Hey, which category is [O-]c1ccc2ccccc2n1 in, do you know?
-- reply 2

-- ask Hey, which category is OCCN1CC[NH+](CCCN2c3ccccc3Sc3ccc(Cl)cc32)CC1 in, do you know?
-- reply 0

-- ask Hey, which category is C(CN1CCOCC1)C[NH+]1CCOCC1 in, do you know?
-- reply 1

-- ask Hey, which category is CCCCCC(C)(C)N in, do you know?
-- reply 2
